Entry source: ChEMBL document CHEMBL3885861

Organism: Rattus norvegicus
assay-procedure: Open TG-GATES - Regimen: Daily Repeat
Type: toxicity, organism-based, Sprague-Dawley
Parameters: regimen Daily Repeat, gender Male, age 6 weeks
study-conditions: in vivo, po, 0 mg/kg, 72 h, tissue Plasma, route gavage, dose level Control, time 3 day
quantity-kind: GLC (mg/dL)
The reply should contain only the number, in mg/dL.

1. O=[N+]([O-])c1ccc(O)c([N+](=O)[O-])c1    183

Report GLC for C[C@H]1O[C@H](O[C@H]2[C@H](O)[C@@H](O)[C@@H](O[C@H]3[C@H](O)[C@@H](O)C(O)O[C@@H]3CO)O[C@@H]2CO)[C@H](O)[C@@H](O)[C@@H]1N[C@H]1C=C(CO)[C@@H](O)[C@H](O)[C@H]1O (some centres undefined) please.
173

Input Cn1cc[nH]c1=S
190.8

Input Cc1cccc(C)c1OCC(C)N (centres undefined)
201.2

---

// reported ALT for each item listed
Species on record: Rattus norvegicus
assay-procedure: Open TG-GATES - Regimen: Single
Assay type: toxicity, organism-based, Sprague-Dawley
Design: regimen Single, gender Male, age 6 weeks
study-conditions: in vivo, po, 0 mg/kg, 24 h, tissue Plasma, route gavage, dose level Control
The reply should contain only the number, in IU/L.

Solved cases (8 shown):
1) O=[N+]([O-])c1ccc(O)c([N+](=O)[O-])c1 [2,4-DINITROPHENOL]    37.4
2) C[C@H]1C(=O)O[C@@H]2CCN3CC=C(COC(=O)[C@](C)(O)[C@]1(C)O)[C@H]23 [MONOCROTALINE]    44.4
3) CCOC(=O)C(C)(C)Oc1ccc(Cl)cc1 [CLOFIBRATE]    34
4) C[C@H]1O[C@H](O[C@H]2[C@H](O)[C@@H](O)[C@@H](O[C@H]3[C@H](O)[C@@H](O)C(O)O[C@@H]3CO)O[C@@H]2CO)[C@H](O)[C@@H](O)[C@@H]1N[C@H]1C=C(CO)[C@@H](O)[C@H](O)[C@H]1O (some centres undefined) [ACARBOSE]    42.2
5) Cc1ccc2cc3c(ccc4ccccc43)c3c2c1CC3 [3-METHYLCHOLANTHRENE]    38
6) Cc1cccc(C)c1OCC(C)N (centres undefined) [MEXILETINE]    49.8
7) C=C(C)[C@H]1Cc2c(ccc3c2O[C@@H]2COc4cc(OC)c(OC)cc4[C@@H]2C3=O)O1 [ROTENONE]    48
8) Cn1cc[nH]c1=S [METHIMAZOLE]    42.8

Proceed to the following item.
Report ALT for OCCN1CCN(CCCN2c3ccccc3Sc3ccc(C(F)(F)F)cc32)CC1 [FLUPHENAZINE] please.
38.6

---

Organism: Rattus norvegicus
assay-procedure: Open TG-GATES - Regimen: Daily Repeat
Type: toxicity, organism-based, Sprague-Dawley
Design: regimen Daily Repeat, gender Male, age 6 weeks
study-conditions: in vivo, po, 0 mg/kg, […], tissue Blood, route gavage, dose level Control, time 7 day
quantity-kind: Plat (x10_4/uL)
The reply should contain only the number, in x10_4/uL.

Solved cases (5 shown):
1) Cn1cc[nH]c1=S [METHIMAZOLE]    115.9
2) C[C@H]1C(=O)O[C@@H]2CCN3CC=C(COC(=O)[C@](C)(O)[C@]1(C)O)[C@H]23 [MONOCROTALINE]    111.7
3) O=[N+]([O-])c1ccc(O)c([N+](=O)[O-])c1 [2,4-DINITROPHENOL]    133.8
4) Cc1cccc(C)c1OCC(C)N (centres undefined) [MEXILETINE]    106.5
5) C[C@H]1O[C@H](O[C@H]2[C@H](O)[C@@H](O)[C@@H](O[C@H]3[C@H](O)[C@@H](O)C(O)O[C@@H]3CO)O[C@@H]2CO)[C@H](O)[C@@H](O)[C@@H]1N[C@H]1C=C(CO)[C@@H](O)[C@H](O)[C@H]1O (some centres undefined) [ACARBOSE]    129.4

Report Plat for O=C1CN(/N=C/c2ccc([N+](=O)[O-])o2)C(=O)N1 [NITROFURANTOIN] please.
135

Input CCOC(=O)C(C)(C)Oc1ccc(Cl)cc1 [CLOFIBRATE]
118.2

Input OCCN1CCN(CCCN2c3ccccc3Sc3ccc(C(F)(F)F)cc32)CC1 [FLUPHENAZINE]
114.7

Input C=C(C)[C@H]1Cc2c(ccc3c2O[C@@H]2COc4cc(OC)c(OC)cc4[C@@H]2C3=O)O1 [ROTENONE]
122.4
